# MEASURED_ON: IL-2Rγc subunit (Homo sapiens, UniProt P31785)
# Construct: Fc; purchased ACRObiosystems, Inc. ILG-H5256
# Sequence (P31785 23-254): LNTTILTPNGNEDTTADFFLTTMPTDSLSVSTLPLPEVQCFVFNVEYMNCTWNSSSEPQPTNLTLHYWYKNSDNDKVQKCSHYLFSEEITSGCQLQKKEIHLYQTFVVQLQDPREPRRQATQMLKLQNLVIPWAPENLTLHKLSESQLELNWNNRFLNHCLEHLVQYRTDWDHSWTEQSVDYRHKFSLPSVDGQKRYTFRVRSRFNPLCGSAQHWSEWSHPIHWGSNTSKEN
# ASSAY: Competitive binding of synthetic test peptides against phage clones on IL-2Rγc
# ASSAY_CONDITIONS: phage clone of IL-2Rγc family 1B
# Protocol: Competitive binding assays were performed to characterize the IL-2R binding sites for certain IL-2Rβ and to IL-2Rγc ligands. Phage binding to the immobilized IL-2Rβ ECD was detected by staining with antibody against phage coat proteins (anti-phage Ab), staining with labeled secondary antibody against the anti-phage Ab, and scored by reading OD in the microtiter plate optical reader. […]
TEST_READOUT: Competition with phage clone peptide SEQ ID NO: 224

* 948 (SLLKCYNASTCASVF) [Peptide 948] | −
* 58 (YDCRIAQVGELCDL) [Peptide 58] | −

* * *

# MEASURED_ON: extracellular domain (ECD) of IL-2Rβ (Homo sapiens, UniProt P14784)
# Construct: Fc; purchased ACRObiosystems, Inc. ILB-H5253
# Sequence (P14784 27-239): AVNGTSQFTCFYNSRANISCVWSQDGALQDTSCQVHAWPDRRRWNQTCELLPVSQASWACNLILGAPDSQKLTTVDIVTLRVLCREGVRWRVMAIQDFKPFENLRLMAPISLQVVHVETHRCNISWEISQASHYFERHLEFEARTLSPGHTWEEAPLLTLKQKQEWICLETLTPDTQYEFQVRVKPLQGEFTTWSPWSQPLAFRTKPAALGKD
# ASSAY: Competitive binding of synthetic test peptides against phage clones on immobilized IL-2Rβ ECD
# ASSAY_CONDITIONS: phage clone of IL-2β family 2C
TEST_READOUT: Competition with phage clone peptide SEQ ID NO: 1034 or 1084

* 224 (DCSMWEGVELCW) [Peptide 224] | −
* 1044 (RSCYYKRPRLWCSE) [Peptide 1044] | −

* * *

# MEASURED_ON: IL-2Rγc subunit (Homo sapiens)
# Construct: Fc; purchased ACRObiosystems, Inc. ILG-H5256
# Sequence (P31785 23-254): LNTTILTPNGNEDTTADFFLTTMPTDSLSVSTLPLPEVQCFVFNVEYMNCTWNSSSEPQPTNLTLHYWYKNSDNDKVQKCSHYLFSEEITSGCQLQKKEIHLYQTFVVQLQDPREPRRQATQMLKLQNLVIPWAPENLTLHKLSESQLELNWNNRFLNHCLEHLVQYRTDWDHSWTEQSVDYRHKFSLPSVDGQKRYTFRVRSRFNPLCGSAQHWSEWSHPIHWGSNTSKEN
# ASSAY: Competitive binding of synthetic test peptides against phage clones on IL-2Rγc
# ASSAY_CONDITIONS: phage clone of IL-2Rγc family 2
# Protocol: Competitive binding assays were performed to characterize the IL-2R binding sites for certain IL-2Rβ and to IL-2Rγc ligands. Phage binding to the immobilized IL-2Rβ ECD was detected by staining with antibody against phage coat proteins (anti-phage Ab), staining with labeled secondary antibody against the anti-phage Ab, and scored by reading OD in the microtiter plate optical reader. […]
TEST_READOUT: Competition with phage clone peptide SEQ ID NO: 236

• 948 (SLLKCYNASTCASVF) [Peptide 948] = −
• 58 (YDCRIAQVGELCDL) [Peptide 58] = −

* * *

# MEASURED_ON: IL-2Rγc subunit (Homo sapiens, UniProt P31785)
# Construct: Fc; purchased ACRObiosystems, Inc. ILG-H5256
# Sequence (P31785 23-254): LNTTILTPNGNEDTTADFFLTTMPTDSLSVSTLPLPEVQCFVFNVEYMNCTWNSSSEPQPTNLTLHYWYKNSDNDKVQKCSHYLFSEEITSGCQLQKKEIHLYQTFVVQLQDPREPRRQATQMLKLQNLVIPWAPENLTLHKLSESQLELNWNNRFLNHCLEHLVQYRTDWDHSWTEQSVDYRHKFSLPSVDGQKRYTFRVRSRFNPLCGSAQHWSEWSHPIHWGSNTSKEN
# ASSAY: Competitive binding of synthetic test peptides against phage clones on IL-2Rγc
# ASSAY_CONDITIONS: phage clone of IL-2Rγc family 4
TEST_READOUT: Competition with phage clone peptide SEQ ID NO: 266

* 948 (SLLKCYNASTCASVF) [Peptide 948] | −
* 58 (YDCRIAQVGELCDL) [Peptide 58] | −

* * *

# MEASURED_ON: IL-2Rγc subunit (Homo sapiens, UniProt P31785)
# Construct: Fc; purchased ACRObiosystems, Inc. ILG-H5256
# Sequence (P31785 23-254): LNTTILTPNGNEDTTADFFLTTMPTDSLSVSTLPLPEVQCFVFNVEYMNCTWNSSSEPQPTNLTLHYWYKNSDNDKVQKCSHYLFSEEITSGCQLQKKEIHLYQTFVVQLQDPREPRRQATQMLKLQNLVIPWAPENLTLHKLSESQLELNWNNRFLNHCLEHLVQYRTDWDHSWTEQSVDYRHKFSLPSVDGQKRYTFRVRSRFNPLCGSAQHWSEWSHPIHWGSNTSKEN
# ASSAY: Competitive binding of synthetic test peptides against phage clones on IL-2Rγc
# ASSAY_CONDITIONS: phage clone of IL-2Rγc family 1A
TEST_READOUT: Competition with phage clone peptide SEQ ID NO: 198

- 58 (YDCRIAQVGELCDL) [Peptide 58]: −
- 948 (SLLKCYNASTCASVF) [Peptide 948]: −^2

* * *

# MEASURED_ON: extracellular domain (ECD) of IL-2Rβ (Homo sapiens, UniProt P14784)
# Construct: Fc; purchased ACRObiosystems, Inc. ILB-H5253
# Sequence (P14784 27-239): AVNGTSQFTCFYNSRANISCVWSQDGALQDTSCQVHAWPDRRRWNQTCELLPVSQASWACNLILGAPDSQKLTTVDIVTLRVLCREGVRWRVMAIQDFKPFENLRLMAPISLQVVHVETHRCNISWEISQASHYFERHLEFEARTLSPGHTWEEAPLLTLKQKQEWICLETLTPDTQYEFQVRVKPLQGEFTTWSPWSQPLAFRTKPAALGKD
# ASSAY: Competitive binding of synthetic test peptides against phage clones on immobilized IL-2Rβ ECD
# ASSAY_CONDITIONS: phage clone of IL-2β family 2A
TEST_READOUT: Competition with phage clone peptide SEQ ID NO: 170

- 1044 (RSCYYKRPRLWCSE) [Peptide 1044]: −
- 224 (DCSMWEGVELCW) [Peptide 224]: −

* * *

# MEASURED_ON: IL-2Rγc subunit (Homo sapiens, UniProt P31785)
# Construct: Fc; purchased ACRObiosystems, Inc. ILG-H5256
# Sequence (P31785 23-254): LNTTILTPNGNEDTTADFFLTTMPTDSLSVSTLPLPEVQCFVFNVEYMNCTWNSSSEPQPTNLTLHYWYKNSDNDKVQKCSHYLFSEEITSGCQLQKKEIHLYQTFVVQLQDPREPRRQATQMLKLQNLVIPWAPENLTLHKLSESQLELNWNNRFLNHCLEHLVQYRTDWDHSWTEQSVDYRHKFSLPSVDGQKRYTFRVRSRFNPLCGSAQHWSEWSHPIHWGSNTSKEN
# ASSAY: Competitive binding of synthetic test peptides against phage clones on IL-2Rγc
# ASSAY_CONDITIONS: phage clone of IL-2Rγc family 3
TEST_READOUT: Competition with phage clone peptide SEQ ID NO: 248 or 1051

* 948 (SLLKCYNASTCASVF) [Peptide 948] | −
* 58 (YDCRIAQVGELCDL) [Peptide 58] | −

* * *

# MEASURED_ON: extracellular domain (ECD) of IL-2Rβ (Homo sapiens, UniProt P14784)
# Construct: Fc; purchased ACRObiosystems, Inc. ILB-H5253
# Sequence (P14784 27-239): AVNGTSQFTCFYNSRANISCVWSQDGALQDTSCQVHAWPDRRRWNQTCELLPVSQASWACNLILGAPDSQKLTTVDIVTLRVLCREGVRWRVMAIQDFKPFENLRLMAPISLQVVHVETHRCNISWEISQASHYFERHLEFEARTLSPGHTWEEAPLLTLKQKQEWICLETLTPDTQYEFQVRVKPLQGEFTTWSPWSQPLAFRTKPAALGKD
# ASSAY: Competitive binding of synthetic test peptides against phage clones on immobilized IL-2Rβ ECD
# ASSAY_CONDITIONS: phage clone of IL-2β family 1
TEST_READOUT: Competition with phage clone peptide SEQ ID NO: 58

* 1044 (RSCYYKRPRLWCSE) [Peptide 1044] | −^2
* 224 (DCSMWEGVELCW) [Peptide 224] | −

Measured values drawn from patent US11358986B2 for this set.
